tested on: L363 cells; experiment: L363 cell viability (MTS); type: cell-based, human; details: Homo sapiens, L-363, viability of L363 cells; read-out: IC50
pIC50: −log10 of the molar value.
// assign fulfilled if pIC50 falls strictly below 5, else not fulfilled (ties count as not fulfilled)

Cc1ccc(NC(=O)c2c(C)oc3ccc(O)c(CN4CCCCCC4)c23)c(C)c1 | not fulfilled
Cc1oc2ccc(O)c(CN3CCCC3)c2c1C(=O)Nc1ccc(C(F)(F)F)cc1 | not fulfilled
Cc1oc2ccc(O)c(CN3CCCCCC3)c2c1C(=O)Nc1cccc(C(F)(F)F)c1 | not fulfilled
Cc1oc2ccc(O)c(CCN3CCCCCC3)c2c1C(=O)Nc1ccc(C(F)(F)F)cc1 | fulfilled
Cc1oc2ccc(O)c(CN3CCC(C)CC3)c2c1C(=O)Nc1cccc(C(F)(F)F)c1 | not fulfilled
Cc1oc2ccc(O)c(CN3CCCCCC3)c2c1C(=O)Nc1cccc(Cl)c1C | not fulfilled
